Biological target: Androgen receptor (Homo sapiens) (UniProt P10275)
Sequence (P10275 whole entry, looked up): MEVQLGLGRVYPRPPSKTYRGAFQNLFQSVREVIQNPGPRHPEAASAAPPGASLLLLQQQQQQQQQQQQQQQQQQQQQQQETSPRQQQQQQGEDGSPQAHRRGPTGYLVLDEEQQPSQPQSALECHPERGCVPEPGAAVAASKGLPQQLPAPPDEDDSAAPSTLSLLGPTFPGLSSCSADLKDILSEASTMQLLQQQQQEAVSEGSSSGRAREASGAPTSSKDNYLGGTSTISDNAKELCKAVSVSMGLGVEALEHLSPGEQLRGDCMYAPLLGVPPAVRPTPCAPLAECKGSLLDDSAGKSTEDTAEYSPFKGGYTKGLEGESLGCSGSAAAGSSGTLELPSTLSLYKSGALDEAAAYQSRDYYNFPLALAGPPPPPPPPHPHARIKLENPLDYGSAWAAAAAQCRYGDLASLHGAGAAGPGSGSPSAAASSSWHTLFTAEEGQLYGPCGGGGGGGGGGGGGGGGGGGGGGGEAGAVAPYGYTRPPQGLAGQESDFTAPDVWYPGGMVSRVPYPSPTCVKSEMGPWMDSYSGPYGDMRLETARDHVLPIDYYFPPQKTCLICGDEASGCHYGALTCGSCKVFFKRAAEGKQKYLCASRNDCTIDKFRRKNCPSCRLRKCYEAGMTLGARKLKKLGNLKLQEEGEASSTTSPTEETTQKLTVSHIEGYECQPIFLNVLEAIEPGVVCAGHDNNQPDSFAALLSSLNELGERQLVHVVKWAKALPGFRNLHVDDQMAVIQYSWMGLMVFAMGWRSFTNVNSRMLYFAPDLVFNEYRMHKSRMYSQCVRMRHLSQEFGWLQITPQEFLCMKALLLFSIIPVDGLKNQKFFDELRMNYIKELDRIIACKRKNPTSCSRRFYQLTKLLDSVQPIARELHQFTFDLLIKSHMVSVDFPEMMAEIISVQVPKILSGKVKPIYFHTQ
Test: qHTS assay to identify small molecule antagonists of the androgen receptor (AR) signaling pathway (AID 743035)
Conditions: HEK293 AR-UAS-bla, R1881-stimulated, beta-lactamase FRET, 16 h; series mostly up to 58.5 µM
Results filed as inconclusive are left out. Activity calls are given as the source filed them. Calls follow the shape of the dose curve; as a rule, active = well fitted inhibition curve with a large enough effect in the signal ratio in the repeat runs (not every such curve was filed as active); inconclusive = weak or mixed curves, or effect the other way; inactive = no such curve, though single readings can be large or run the other way; the % refers to the signal ratio.
Pick one: active, inactive

These recorded examples may help you get a feel for the data.
(Q) Recorded call for C[C@@H]1CC[C@H]2[C@@H](C)C(=O)O[C@@H]3O[C@@]4(C)CC[C@@H]1[C@]32OO4 ?
(A) active

(Q) Identify the outcome logged in this assay for the compound shown: CCCCC(CC)COP(=O)(Oc1ccccc1)Oc1ccccc1 (stereo not given)
(A) inactive

Next:
(Q) Write down the call the test reported for this compound. Item: CCCCN(N=O)C(=N)N[N+](=O)[O-]
(A) inactive

(Q) # fetch the recorded call for COP(=O)(OC)O/C(=C/Cl)c1cc(Cl)c(Cl)cc1Cl here
(A) active

(Q) Record lookup: outcome of this test for O=C1C(Cl)C(CCl)CN1c1cccc(C(F)(F)F)c1 (stereo not given) ?
(A) active
